Each recorded value in this set is attributed to patent US20200270309A1.

# METHOD_SUMMARY: Half-lives and pharmacokinetic parameters of polypeptides vs HM-1
# CONDITION_SET: in vivo; read-out: CL (converted)
Peptide text beside a SMILES is read from it. * marks the point of attachment. Hexanoyl(6-maleimido) = O=C1C=CC(=O)N1CCCCCC(=O)*; Propanoyl(3-maleimido) = O=C1C=CC(=O)N1CCC(=O)*
RESULT_TYPE: clearance

COMPOUND	REPORTED_MEASUREMENT
CC(C)[C@H](NC(=O)[C@H](C)NC(=O)CNC(=O)[C@H](CCCNC(=N)N)NC(=O)CCCCCN1C(=O)C=CC1=O)C(=O)N[C@@H](CC(=O)O)C(=O)N[C@@H](CCCNC(=N)N)C(=O)N[C@@H](C)C(=O)NCC(=O)NCC(=O)NCC(=O)NCC(=O)N[C@@H](CCCNC(=N)N)C(=O)NCC(=O)N[C@@H](CC(=O)O)C(=O)O [P10] ({Hexanoyl(6-maleimido)}-RGAVDRAGGGGRGD-OH; C-terminus assumed)	0.677 mL/min/kg
C[C@H](NC(=O)CNC(=O)[C@H](CCCNC(=N)N)NC(=O)CCN1C(=O)C=CC1=O)C(=O)N[C@@H](CC(=O)O)C(=O)N[C@@H](CCCNC(=N)N)C(=O)N[C@@H](C)C(=O)NCC(=O)NCC(=O)NCC(=O)NCC(=O)N[C@@H](CCCNC(=N)N)C(=O)NCC(=O)N[C@@H](CC(=O)O)C(=O)O [X2] ({Propanoyl(3-maleimido)}-RGADRAGGGGRGD-OH)	0.6 mL/min/kg
C[C@H](NC(=O)CNC(=O)[C@H](CCCNC(=N)N)NC(=O)CCN1C(=O)C=CC1=O)C(=O)N[C@@H](CC(=O)O)C(=O)N[C@@H](CCCNC(=N)N)C(=O)N[C@@H](C)C(=O)N[C@@H](CCC(=O)O)C(=O)N[C@@H](C)C(=O)N[C@@H](C)C(=O)N[C@@H](C)C(=O)N[C@@H](CCCCN)C(=O)N[C@@H](CCCNC(=N)N)C(=O)NCC(=O)N[C@@H](CC(=O)O)C(=O)O [P11] ({Propanoyl(3-maleimido)}-RGADRAEAAAKRGD-OH)	0.528 mL/min/kg
C[C@H](NC(=O)CNC(=O)[C@H](CCCNC(=N)N)NC(=O)CCN1C(=O)C=CC1=O)C(=O)N[C@@H](CC(=O)O)C(=O)N[C@@H](CCCNC(=N)N)C(=O)N[C@@H](C)C(=O)NCC(=O)N[C@@H](CO)C(=O)N[C@@H](CO)C(=O)N[C@@H](CO)C(=O)N[C@@H](CO)C(=O)N[C@@H](CCCNC(=N)N)C(=O)NCC(=O)N[C@@H](CC(=O)O)C(=O)O [P13] ({Propanoyl(3-maleimido)}-RGADRAGSSSSRGD-OH; C-terminus assumed)	0.525 mL/min/kg

* * *

Reported AUC(0-inf) values for the following compounds.
# METHOD_SUMMARY: Half-lives and pharmacokinetic parameters of polypeptides vs HM-1
# CONDITION_SET: in vivo
Peptide text beside a SMILES is read from it. * marks the point of attachment. X74 = O=C1C=CC(=O)N1c1cccc(CCCCCCCCCCC(=O)*)c1; X54 = O=C1C=CC(=O)N1c1cccc(CCCCCCC(=O)*)c1; X67 = O=C1C=CC(=O)N1CCCCCCCCCC(=O)*

COMPOUND	UNIT_LABEL	AUC(0-inf)
C[C@H](NC(=O)CNC(=O)[C@H](CCCNC(=N)N)NC(=O)CCCCCCCCCN1C(=O)C=CC1=O)C(=O)N[C@@H](CC(=O)O)C(=O)N[C@@H](CCCNC(=N)N)C(=O)N[C@@H](C)C(=O)NCC(=O)NCC(=O)NCC(=O)NCC(=O)N[C@@H](CCCNC(=N)N)C(=O)NCC(=O)N[C@@H](CC(=O)O)C(=O)O [X9] (X67-RGADRAGGGGRGD-OH)	ng·h/mL	31200
C[C@H](NC(=O)CNC(=O)[C@H](CCCNC(=N)N)NC(=O)CCCCCCc1cccc(N2C(=O)C=CC2=O)c1)C(=O)N[C@@H](CC(=O)O)C(=O)N[C@@H](CCCNC(=N)N)C(=O)N[C@@H](C)C(=O)NCC(=O)NCC(=O)NCC(=O)NCC(=O)N[C@@H](CCCNC(=N)N)C(=O)NCC(=O)N[C@@H](CC(=O)O)C(=O)O [X30] (X54-RGADRAGGGGRGD-OH)	ng·h/mL	28300
C[C@H](NC(=O)CNC(=O)[C@H](CCCNC(=N)N)NC(=O)CCCCCCCCCCc1cccc(N2C(=O)C=CC2=O)c1)C(=O)N[C@@H](CC(=O)O)C(=O)N[C@@H](CCCNC(=N)N)C(=O)N[C@@H](C)C(=O)NCC(=O)NCC(=O)NCC(=O)NCC(=O)N[C@@H](CCCNC(=N)N)C(=O)NCC(=O)N[C@@H](CC(=O)O)C(=O)O [X34] (X74-RGADRAGGGGRGD-OH)	ng·h/mL	27700

* * *

# System: choroidal neovascularization
# METHOD_SUMMARY: Choroidal neovascularization in rats (laser photocoagulation, FFA)
# Type: in vivo
# CONDITION_SET: day 7 after administration, total light spot number was 186, 0.05 μM in the vitreous chamber once a day for 1 week, BN rats
Peptide text beside a SMILES is read from it. * marks the point of attachment. X58 = O=C1C=CC(=O)N1c1cccc(CCCCCCCCCCCC(=O)*)c1; X74 = O=C1C=CC(=O)N1c1cccc(CCCCCCCCCCC(=O)*)c1; X84 = O=C1C=CC(=O)N1c1ccccc1CCCCCCCCCCCCC(=O)*; X59 = O=C1C=CC(=O)N1c1cccc(CCCCCCCCC(=O)*)c1; X66 = O=C1C=CC(=O)N1c1cccc(CCCCCCCC(=O)*)c1; X54 = O=C1C=CC(=O)N1c1cccc(CCCCCCC(=O)*)c1; X55 = O=C1C=CC(=O)N1c1ccccc1CCCCCCCCC(=O)*; X52 = O=C1C=CC(=O)N1c1ccccc1CCCCCCCC(=O)*; X71 = O=C1C=CC(=O)N1c1cccc(CCCCCC(=O)*)c1; X63 = O=C1C=CC(=O)N1c1ccccc1CCCCCCC(=O)*; X49 = O=C1C=CC(=O)N1c1ccccc1CCCCCC(=O)*; X79 = O=C1C=CC(=O)N1c1cccc(CCC(=O)*)c1
Reported CNV Incidence (%) values for the following compounds.
RESULT_TYPE: CNV Incidence (%)

COMPOUND	REPORTED_MEASUREMENT
C[C@H](NC(=O)CNC(=O)[C@H](CCCNC(=N)N)NC(=O)CCc1cccc(N2C(=O)C=CC2=O)c1)C(=O)N[C@@H](CC(=O)O)C(=O)N[C@@H](CCCNC(=N)N)C(=O)N[C@@H](C)C(=O)NCC(=O)NCC(=O)NCC(=O)NCC(=O)N[C@@H](CCCNC(=N)N)C(=O)NCC(=O)N[C@@H](CC(=O)O)C(=O)O [X26] (X79-RGADRAGGGGRGD-OH)	49.46
C[C@H](NC(=O)CNC(=O)[C@H](CCCNC(=N)N)NC(=O)CCCCCCCCc1cccc(N2C(=O)C=CC2=O)c1)C(=O)N[C@@H](CC(=O)O)C(=O)N[C@@H](CCCNC(=N)N)C(=O)N[C@@H](C)C(=O)NCC(=O)NCC(=O)NCC(=O)NCC(=O)N[C@@H](CCCNC(=N)N)C(=O)NCC(=O)N[C@@H](CC(=O)O)C(=O)O [X32] (X59-RGADRAGGGGRGD-OH)	46.24
C[C@H](NC(=O)CNC(=O)[C@H](CCCNC(=N)N)NC(=O)CCCCCCCCc1ccccc1N1C(=O)C=CC1=O)C(=O)N[C@@H](CC(=O)O)C(=O)N[C@@H](CCCNC(=N)N)C(=O)N[C@@H](C)C(=O)NCC(=O)NCC(=O)NCC(=O)NCC(=O)N[C@@H](CCCNC(=N)N)C(=O)NCC(=O)N[C@@H](CC(=O)O)C(=O)O [X20] (X55-RGADRAGGGGRGD-OH)	48.92
C[C@H](NC(=O)CNC(=O)[C@H](CCCNC(=N)N)NC(=O)CCCCCCCc1ccccc1N1C(=O)C=CC1=O)C(=O)N[C@@H](CC(=O)O)C(=O)N[C@@H](CCCNC(=N)N)C(=O)N[C@@H](C)C(=O)NCC(=O)NCC(=O)NCC(=O)NCC(=O)N[C@@H](CCCNC(=N)N)C(=O)NCC(=O)N[C@@H](CC(=O)O)C(=O)O [X19] (X52-RGADRAGGGGRGD-OH)	45.70
C[C@H](NC(=O)CNC(=O)[C@H](CCCNC(=N)N)NC(=O)CCCCCc1ccccc1N1C(=O)C=CC1=O)C(=O)N[C@@H](CC(=O)O)C(=O)N[C@@H](CCCNC(=N)N)C(=O)N[C@@H](C)C(=O)NCC(=O)NCC(=O)NCC(=O)NCC(=O)N[C@@H](CCCNC(=N)N)C(=O)NCC(=O)N[C@@H](CC(=O)O)C(=O)O [X17] (X49-RGADRAGGGGRGD-OH)	48.39
C[C@H](NC(=O)CNC(=O)[C@H](CCCNC(=N)N)NC(=O)CCCCCCCCCCCCc1ccccc1N1C(=O)C=CC1=O)C(=O)N[C@@H](CC(=O)O)C(=O)N[C@@H](CCCNC(=N)N)C(=O)N[C@@H](C)C(=O)NCC(=O)NCC(=O)NCC(=O)NCC(=O)N[C@@H](CCCNC(=N)N)C(=O)NCC(=O)N[C@@H](CC(=O)O)C(=O)O [X24] (X84-RGADRAGGGGRGD-OH)	49.46
C[C@H](NC(=O)CNC(=O)[C@H](CCCNC(=N)N)NC(=O)CCCCCCCCCCCc1cccc(N2C(=O)C=CC2=O)c1)C(=O)N[C@@H](CC(=O)O)C(=O)N[C@@H](CCCNC(=N)N)C(=O)N[C@@H](C)C(=O)NCC(=O)NCC(=O)NCC(=O)NCC(=O)N[C@@H](CCCNC(=N)N)C(=O)NCC(=O)N[C@@H](CC(=O)O)C(=O)O [X35] (X58-RGADRAGGGGRGD-OH)	47.85
C[C@H](NC(=O)CNC(=O)[C@H](CCCNC(=N)N)NC(=O)CCCCCCCCCCc1cccc(N2C(=O)C=CC2=O)c1)C(=O)N[C@@H](CC(=O)O)C(=O)N[C@@H](CCCNC(=N)N)C(=O)N[C@@H](C)C(=O)NCC(=O)NCC(=O)NCC(=O)NCC(=O)N[C@@H](CCCNC(=N)N)C(=O)NCC(=O)N[C@@H](CC(=O)O)C(=O)O [X34] (X74-RGADRAGGGGRGD-OH)	47.31
C[C@H](NC(=O)CNC(=O)[C@H](CCCNC(=N)N)NC(=O)CCCCCCc1ccccc1N1C(=O)C=CC1=O)C(=O)N[C@@H](CC(=O)O)C(=O)N[C@@H](CCCNC(=N)N)C(=O)N[C@@H](C)C(=O)NCC(=O)NCC(=O)NCC(=O)NCC(=O)N[C@@H](CCCNC(=N)N)C(=O)NCC(=O)N[C@@H](CC(=O)O)C(=O)O [X18] (X63-RGADRAGGGGRGD-OH)	46.24
C[C@H](NC(=O)CNC(=O)[C@H](CCCNC(=N)N)NC(=O)CCCCCCc1cccc(N2C(=O)C=CC2=O)c1)C(=O)N[C@@H](CC(=O)O)C(=O)N[C@@H](CCCNC(=N)N)C(=O)N[C@@H](C)C(=O)NCC(=O)NCC(=O)NCC(=O)NCC(=O)N[C@@H](CCCNC(=N)N)C(=O)NCC(=O)N[C@@H](CC(=O)O)C(=O)O [X30] (X54-RGADRAGGGGRGD-OH)	48.92
C[C@H](NC(=O)CNC(=O)[C@H](CCCNC(=N)N)NC(=O)CCCCCc1cccc(N2C(=O)C=CC2=O)c1)C(=O)N[C@@H](CC(=O)O)C(=O)N[C@@H](CCCNC(=N)N)C(=O)N[C@@H](C)C(=O)NCC(=O)NCC(=O)NCC(=O)NCC(=O)N[C@@H](CCCNC(=N)N)C(=O)NCC(=O)N[C@@H](CC(=O)O)C(=O)O [X29] (X71-RGADRAGGGGRGD-OH)	45.70
C[C@H](NC(=O)CNC(=O)[C@H](CCCNC(=N)N)NC(=O)CCCCCCCc1cccc(N2C(=O)C=CC2=O)c1)C(=O)N[C@@H](CC(=O)O)C(=O)N[C@@H](CCCNC(=N)N)C(=O)N[C@@H](C)C(=O)NCC(=O)NCC(=O)NCC(=O)NCC(=O)N[C@@H](CCCNC(=N)N)C(=O)NCC(=O)N[C@@H](CC(=O)O)C(=O)O [X31] (X66-RGADRAGGGGRGD-OH)	46.77
